# Test system: MALME-3M melanoma
# Assay method text: NCI-60 one-dose screen, 48 h (100 = growth as untreated, 0 = no growth, -100 = all killed)
# Reported conditions: 10 µM unless noted
Compounds without any hit were thinned out: in the full panel of roughly 83,000, 20% have a hit.
Assay endpoint: growth (%)
Write the number in % without appending the unit.

What growth value was documented for this compound, CN1CCN(C(=O)OCc2nc3c(N4CCOCC4)nc(-c4ccccc4)nc3n2C)CC1 ?
-93.9

Ok, now COc1ccc(/C=C2\COc3ccc(-c4ccccc4)cc3C2=O)cc1O
74.7

---

Recorded measurements of growth, one per entry
# System: HOP-62 NSCLC
# Assay method text: NCI-60 one-dose screen, 48 h (100 = growth as untreated, 0 = no growth, -100 = all killed)
# Reported conditions: 10 µM unless noted
This is part of a sample that, as a whole, favours compounds with a hit. Of some 83,000 tested, about 20% had one in any assay. The source made the active and inactive calls. How the source made its calls: active means growth percent below 10; inactive means the rest.

Cc1c(C(=O)NO)sc2ncnc(Nc3ccc(NC(=S)Nc4ccccc4)cc3)c12: 101% (inactive)
O=S(=O)(NCCCNc1nccc(-c2c(-c3cccc(O)c3)nc3occn23)n1)c1ccc(F)cc1: 117% (inactive)
COc1ccc(C(=O)/C=C/c2ccc(OCc3ccccc3)c(OC)c2)cc1OC: 31.4% (inactive)
COc1ccc(-c2c(-c3ccccc3)noc2N)cc1OC: 124% (inactive)

# evaluate next
# query: growth of entry CCN(CC)CCCCCCNc1cc(OC)cc2cccnc12
92.1% (inactive)
